B1: Osa-1-4 twister ribozyme (parent)
chain: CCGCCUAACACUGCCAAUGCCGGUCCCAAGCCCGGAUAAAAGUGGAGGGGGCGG

variants of: B1; experiment: self-cleavage, relative activity (ratio to wild type); higher = more cleavage; co-transcriptional
self-cleavage values for the variants below.
When you answer, write just the number.

# variant-code, self-cleavage
data = [
    ("A40C C25G", 0.03),
]

Exercise: Form field: reported self-cleavage of G13C G42U
Key: 0.01

Exercise: Proceed to G48A U12C
Key: 0.04

Exercise: Proceed to G51C G54A
Key: 0.09

Exercise: Proceed to G35A U24A
Key: 0.32

Exercise: Proceed to C25G C9G
Key: 0.07

Exercise: Proceed to A36G A41C
Key: 0.97
